Assay Summary: Plasma pharmacokinetics after single intravenous and oral administration
Set-up: species or system male C57BL/6 mice
Particulars: male, C57BL/6, mouse, in vivo, po, 8 mg/kg, Cmax, maximal observed plasma concentration
Measurement Name: Cmax (ng/mL)
# output: bare number, implied unit ng/mL

Recorded result, CNC(=O)C(=O)NCCCC/C=C\CCCCCCCOCC(=O)O [Comp-02] , Cmax: 903

====

Assay Summary: Plasma pharmacokinetics after single intravenous and oral administration
Parameters: species or system male C57BL/6 mice
Particulars: male, C57BL/6, mouse, in vivo, po, 8 mg/kg
Measurement Name: AUC(0-inf) (ng·h/mL)
# output: bare number, implied unit ng·h/mL

Recorded result, CNC(=O)C(=O)NCCCC/C=C\CCCCCCCOCC(=O)O [Comp-02] , AUC(0-inf): 1820
